Listing of recorded Kd by entry.
TARGET UNDER TEST: Heat shock protein HSP90 (Homo sapiens, UniProt P07900+P08238)
EXPERIMENT NOTES: Binding affinity to Hsp90 (unknown origin) assessed as dissociation constant incubated for 30 mins by fluorescence spectrophotometric analysis
Type: protein assay

COCCNC(=O)[C@H]1C[C@H](c2ccccc2)CN1C(=O)c1cc(C(C)C)c(O)cc1O
188 nM
CC(C)c1cc(C(=O)N2C[C@@H](c3ccccc3)C[C@@H]2C(=O)N2CCCCC2C)c(O)cc1O (some centres undefined)
2171 nM
CCCCCNC(=O)[C@H]1C[C@H](c2ccccc2)CN1C(=O)c1cc(C(C)C)c(O)cc1O
2161 nM
CC(C)c1cc(C(=O)N2C[C@@H](c3ccccc3)C[C@@H]2C(=O)N2CCCC2)c(O)cc1O
2033 nM
CCN(CC)CCNC(=O)[C@H]1C[C@H](c2ccccc2)CN1C(=O)c1cc(C(C)C)c(O)cc1O
431 nM

Which measured Kd belongs to "CC(C)c1cc(C(=O)N2C[C@@H](c3ccccc3)C[C@@H]2C(=O)NCC2CC2)c(O)cc1O" , tested on Heat shock protein HSP90 (Homo sapiens, UniProt P07900+P08238)?
354 nM

Which measured Kd belongs to "CC(C)c1cc(C(=O)N2C[C@@H](c3ccccc3)C[C@@H]2C(=O)N2CCCCC2)c(O)cc1O" , tested on Heat shock protein HSP90 (Homo sapiens, UniProt P07900+P08238)?
1337 nM

Which measured Kd belongs to "CC(C)c1cc(C(=O)N2C[C@@H](c3ccccc3)C[C@@H]2C(=O)NCc2ccccc2F)c(O)cc1O" , tested on Heat shock protein HSP90 (Homo sapiens, UniProt P07900+P08238)?
231 nM

Which measured Kd belongs to COc1ccc(C(C)NC(=O)[C@H]2C[C@H](c3ccccc3)CN2C(=O)c2cc(C(C)C)c(O)cc2O)cc1 (some centres undefined) , tested on Heat shock protein HSP90 (Homo sapiens, UniProt P07900+P08238)?
463 nM

Which measured Kd belongs to "O=C(c1ccccc1O)N1Cc2ccccc2C1" , tested on Heat shock protein HSP90 (Homo sapiens, UniProt P07900+P08238)?
532 nM

Which measured Kd belongs to "CC(C)c1cc(C(=O)N2C[C@@H](c3ccccc3)C[C@@H]2C(=O)NC2CCCCC2)c(O)cc1O" , tested on Heat shock protein HSP90 (Homo sapiens, UniProt P07900+P08238)?
1076 nM

Which measured Kd belongs to "CC(C)NC(=O)Oc1ccc2c(c1)CN(C(=O)c1cc(C3CC3)c(O)cc1O)C2" , tested on Heat shock protein HSP90 (Homo sapiens, UniProt P07900+P08238)?
20 nM

Which measured Kd belongs to "CCCCN(C)C(=O)[C@H]1C[C@H](c2ccccc2)CN1C(=O)c1cc(C(C)C)c(O)cc1O" , tested on Heat shock protein HSP90 (Homo sapiens, UniProt P07900+P08238)?
1637 nM

Which measured Kd belongs to "CC(C)c1cc(C(=O)N2C[C@@H](c3ccccc3)C[C@@H]2C(=O)NCCCN2CCOCC2)c(O)cc1O" , tested on Heat shock protein HSP90 (Homo sapiens, UniProt P07900+P08238)?
87 nM
